# measured-on: human IDO1 (Homo sapiens, UniProt P14902)
# Sequence (P14902 whole entry): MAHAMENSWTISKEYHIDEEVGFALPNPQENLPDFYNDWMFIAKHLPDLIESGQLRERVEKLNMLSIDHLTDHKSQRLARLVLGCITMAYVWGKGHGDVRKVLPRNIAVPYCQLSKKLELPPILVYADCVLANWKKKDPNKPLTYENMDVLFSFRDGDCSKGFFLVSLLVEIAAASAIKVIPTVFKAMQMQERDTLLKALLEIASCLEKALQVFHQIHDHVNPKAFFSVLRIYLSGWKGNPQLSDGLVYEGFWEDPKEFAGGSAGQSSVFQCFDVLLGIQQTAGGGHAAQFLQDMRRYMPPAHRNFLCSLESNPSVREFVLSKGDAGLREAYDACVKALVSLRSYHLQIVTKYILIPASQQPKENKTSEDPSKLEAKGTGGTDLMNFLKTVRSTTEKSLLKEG
# protocol-summary: IDO inhibition assay in HEK293 cells stably expressing human IDO1 (kynurenine, Ehrlich reagent)
# test-parameters: 20 hours incubation, read-out: HEK Human IDO-1 Bio Activity
The following molecules are shown together with reported IC50 values.
readout: IC50

{"molecule": "CC[C@H](NC(=O)c1ccc(-c2ccccc2)cc1)[C@H]1CC[C@H](c2cnc3ccccc3c2)CC1", "recorded-measurement": "< 0.05 µM"}
{"molecule": "Cc1nccc(C2CCC(C(C)NC(=O)c3ccc(Cl)cc3)CC2)c1C (single isomer, unassigned) [Example 159b]", "recorded-measurement": "< 0.25 µM"}
{"molecule": "Cc1cnccc1C1CCC(C(C)NC(=O)c2ccc(Cl)cc2)CC1 (single isomer, unassigned) [Example 160e]", "recorded-measurement": "< 0.05 µM"}
{"molecule": "CCC(NC(=O)c1ccc(-c2ccccc2)cc1)[C@H]1CC[C@@H](c2cnc3ccccc3c2)CC1 (stereo partly drawn)", "recorded-measurement": "< 0.25 µM"}
{"molecule": "Cc1nccc(C2CCC(C(C)NC(=O)c3ccc(Cl)cc3)CC2)c1C (single isomer, unassigned) [Example 159e]", "recorded-measurement": "< 2 µM"}
{"molecule": "CC(NC(=O)c1ccc(Cl)cc1)C1CCC(c2ccncc2F)CC1 (single isomer, unassigned) [Example 161b]", "recorded-measurement": "< 0.05 µM"}
